# measuredOn: BRDT-BD2
recordedEndpoint: pKd
Scale for pKd: -log10 of concentration given in mol/L; no unit attached.

Request: Recorded pKd for CC(=O)Nc1cc(NC(=O)c2ccc3c(c2)c(-c2ccc(N)cc2C)nn3C)ccc1C [Compound 20] with BRDT-BD2, please?
Response: 8.89

* * *

Endpoint: pIC50. System: BRD4-BD1. Items follow.
Scale for pIC50: -log10 of concentration given in mol/L; no unit attached.

# example entries with known answers
CC(=O)Nc1cccc(NC(=O)c2ccc3c(c2)c(-c2ccc(N)cc2C)nn3C)c1: 4.85
CNC(=O)c1ccc(C(=O)Nc2cc(NC(=O)c3ccc4c(c3)c(-c3cc5ccccc5n3C)nn4C)ccc2C)cc1: 4.58
CNC(=O)c1cc(NC(=O)c2ccc3c(c2)c(-c2ccc(N)cc2C)nn3C)ccc1C: 4.96
CC(=O)Nc1cc(NC(=O)c2ccc3c(c2)c(-c2ccc(N)nc2)nn3C)ccc1C: 4.60

Consider the additional molecule presented here.
Request: Recorded pIC50 for CC(=O)Nc1cc(NC(=O)c2ccc3c(c2)c(-c2ccc(N)cc2C)nn3C)ccc1C with BRD4-BD1, please?
Response: 4.98
